# SYSTEM TESTED: HLA-A02.01 (Homo sapiens, UniProt P04439, D140Y/D185E/D98H/E176V/E277Q/G131W/G231S/I119V/I121R/I166T/I218V/L300P/L318F/N151K/N90K/P208A/P217A/Q86G/Q94H/R138H/R169H/T345S)
# RUN DESCRIPTION: Class I MHC peptide binding affinity (displacement of radiolabeled reference peptide)
# DETAILS: allele A02.01; read-out: Observed Affinity (IC50; (nM))
Where a SMILES comes first, the peptide text is derived from it.
QUANTITY NAME: IC50 (nM)

Some compounds with known IC50 results, for comparison:
[
  {
    "COMPOUND": "CC(C)C[C@H](NC(=O)[C@H](Cc1ccccc1)NC(=O)[C@H](CO)NC(=O)[C@H](CC(C)C)NC(=O)[C@H](CS)NC(=O)[C@H](CO)NC(=O)[C@H](Cc1ccccc1)NC(=O)[C@H](CC(C)C)NC(=O)[C@H](CCCCN)NC(=O)[C@@H](N)Cc1ccccc1)C(=O)O (H-FKLFSCLSFL-OH; N-terminus and C-terminus assumed)",
    "RECORDED VALUE": 663
  },
  {
    "COMPOUND": "CC[C@H](C)[C@H](NC(=O)[C@@H](N)CC(C)C)C(=O)N[C@H](C(=O)N[C@@H](CO)C(=O)N[C@@H](CCCNC(=N)N)C(=O)N[C@H](C(=O)N[C@@H](CC(C)C)C(=O)N[C@@H](CC(C)C)C(=O)N[C@@H](CC(C)C)C(=O)N[C@H](C(=O)O)C(C)C)[C@@H](C)O)C(C)C (H-LIVSRTLLLV-OH; N-terminus and C-terminus assumed)",
    "RECORDED VALUE": 10900
  },
  {
    "COMPOUND": "CC[C@H](C)[C@H](NC(=O)[C@H](CCCCN)NC(=O)[C@H](C)NC(=O)[C@@H](NC(=O)[C@@H](N)CCCNC(=N)N)C(C)C)C(=O)N[C@@H](C)C(=O)N[C@@H](CC(=O)O)C(=O)N[C@@H](Cc1ccccc1)C(=O)NCC(=O)N[C@@H](CCSC)C(=O)O (H-RVAKIADFGM-OH; N-terminus and C-terminus assumed)",
    "RECORDED VALUE": 125
  },
  {
    "COMPOUND": "CC[C@H](C)[C@H](NC(=O)[C@@H](NC(=O)[C@H](CC(C)C)NC(=O)[C@@H](NC(=O)[C@@H]1CCCN1C(=O)[C@H](CCCNC(=N)N)NC(=O)[C@H](CCC(N)=O)NC(=O)[C@H](CC(N)=O)NC(=O)[C@H](CCSC)NC(=O)CN)[C@@H](C)CC)[C@@H](C)O)C(=O)O",
    "RECORDED VALUE": 709
  },
  {
    "COMPOUND": "CC[C@H](C)[C@H](NC(=O)[C@H](CC(=O)O)NC(=O)[C@H](Cc1ccccc1)NC(=O)[C@H](CC(C)C)NC(=O)[C@@H](NC(=O)[C@H](CCC(=O)O)NC(=O)[C@@H](NC(=O)[C@H](CCSC)NC(=O)[C@@H](N)Cc1c[nH]c2ccccc12)[C@@H](C)O)[C@@H](C)O)C(=O)N[C@H](C(=O)O)C(C)C (H-WMTETLFDIV-OH; N-terminus and C-terminus assumed)",
    "RECORDED VALUE": 40
  },
  {
    "COMPOUND": "CC[C@H](C)[C@H](NC(=O)[C@@H]1CCCN1C(=O)[C@H](CCCNC(=N)N)NC(=O)[C@H](Cc1c[nH]c2ccccc12)NC(=O)[C@H](CC(N)=O)NC(=O)[C@H](CCSC)NC(=O)CN)C(=O)N[C@@H](CC(C)C)C(=O)N[C@H](C(=O)O)[C@@H](C)O (H-GMNWRPILT-OH; N-terminus and C-terminus assumed)",
    "RECORDED VALUE": 1130
  }
]

1. CC(C)C[C@H](NC(=O)[C@H](C)N)C(=O)N[C@@H](CC(N)=O)C(=O)N[C@@H](CO)C(=O)N[C@@H](CCC(=O)O)C(=O)N[C@@H](C)C(=O)N[C@@H](CC(C)C)C(=O)N[C@@H](CO)C(=O)N[C@H](C(=O)O)C(C)C (H-ALNSEALSV-OH)
2. CC[C@H](C)[C@H](NC(=O)[C@@H](N)CC(C)C)C(=O)N[C@@H](CCSC)C(=O)N[C@@H](CCC(N)=O)C(=O)N[C@@H](CC(C)C)C(=O)N[C@@H](CCSC)C(=O)N1CCC[C@H]1C(=O)N[C@@H](Cc1ccccc1)C(=O)NCC(=O)N[C@@H](CS)C(=O)O
-- ask # query: argmin of IC50 over 1 and 2 Respond with the label that goes with your answer.
-- reply 1
